Reference source for all entries: ChEMBL document CHEMBL1201861

# Tested on: ASPC1;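 further: growth inhibition of AsPC-1 cells, read out with a cell viability assay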
# experiment description: cells
# Assay type: functional, cell-based, Homo sapiens
# test settings: Homo sapiens, ASPC1
# Description: SANGER: Inhibition of human AsPC-1 cell growth in a cell viability assay.
measured attribute: IC50

Answered examples (4):
molecule	IC50
COc1ccc(-c2ccc3c(N4CCOC[C@@H]4C)nc(N4CCOC[C@@H]4C)nc3n2)cc1CO	0.738 µM
CC(=O)O[C@@H]1[C@@H](OC(C)=O)[C@@H](O)[C@H](Oc2c(-c3ccc(O)cc3)oc3cc(O)cc(O)c3c2=O)O[C@H]1C	> 10 µM
CCOc1nc(NC(=O)Cc2cc(OC)ccc2OC)cc(N)c1C#N	> 10 µM
CN(c1ncccc1CNc1nc(Nc2ccc3c(c2)CC(=O)N3)ncc1C(F)(F)F)S(C)(=O)=O	> 2.56 µM

Per the reported ASPC1 data, Cc1ccc(Nc2nccc(N(C)c3ccc4c(C)n(C)nc4c3)n2)cc1S(N)(=O)=O has IC50 of > 8 µM

IC50 value, target or system ASPC1, for COc1cc(F)c(F)c(Nc2ccc(I)cc2F)c1NS(=O)(=O)C1(CC(O)CO)CC1 (centres undefined) : 1.07 µM

Param item: O=C(c1cc(Cc2n[nH]c(=O)c3ccccc23)ccc1F)N1CCN(C(=O)C2CC2)CC1 ; param system: ASPC1; output IC50: > 5 µM

Entry O=c1cc(-c2cccc3c2Sc2ccccc2S3)oc(N2CCOCC2)c1 under ASPC1 had IC50 of > 10 µM

Field IC50 (ASPC1), entry O=C(NOCC1CC1)c1ccc(F)c(F)c1Nc1ccc(I)cc1Cl : 5.37 µM

---

# System: AU565;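 further: cell viability assay measuring growth inhibition of human AU565 cells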
# experiment description: cells
# Type: functional, cell-based, Homo sapiens
# test settings: Homo sapiens, AU565
# Description: SANGER: Inhibition of human AU565 cell growth in a cell viability assay.
pIC50: −log10 of the molar value.
Here the recorded pIC50 is given for each entry.

Sample answers from the record:
compound	measurement target	pIC50
COc1cc(F)c(F)c(Nc2ccc(I)cc2F)c1NS(=O)(=O)C1(CC(O)CO)CC1 (configuration not stated)	AU565	< 5.30
O=c1cc(-c2cccc3c2Sc2ccccc2S3)oc(N2CCOCC2)c1	AU565	< 5.00
COC(=O)CNC(=O)C(=O)OC	AU565	< 2.40

Entry Nc1ccn([C@@H]2O[C@H](CO)[C@@H](O)[C@@H]2O)c(=O)n1 under AU565 had pIC50 of < 5.70

GET /values?item= CCOc1nc(NC(=O)Cc2cc(OC)ccc2OC)cc(N)c1C#N &system= AU565 returns pIC50: < 5.00

The value of pIC50 recorded for O=C(c1cc(Cc2n[nH]c(=O)c3ccccc23)ccc1F)N1CCN(C(=O)C2CC2)CC1 when tested on AU565 reads < 5.30

# lookup: C=CCNC1=C2C[C@@H](C)C[C@H](OC)[C@H](O)[C@@H](C)/C=C(\C)[C@H](OC(N)=O)[C@@H](OC)/C=C\C=C(/C)C(=O)NC(=CC1=O)C2=O on AU565, pIC50 = < 6.00

---

# Tested on: C32;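 further: cell viability assay, with IC50 reflecting inhibition of C32 cell growth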
# experiment description: cells
# Format: functional, cell-based, Homo sapiens
# test settings: Homo sapiens, C32
# Description: SANGER: Inhibition of human C32 cell growth in a cell viability assay.
measured attribute: IC50

COc1ccc(C2=N[C@@H](c3ccc(Cl)cc3)[C@@H](c3ccc(Cl)cc3)N2C(=O)N2CCNC(=O)C2)c(OC(C)C)c1 5.6 µM

Given item O=c1cc(-c2cccc3c2Sc2ccccc2S3)oc(N2CCOCC2)c1 , the value recorded as its IC50 is > 10 µM

Entry under test: O=C(c1cc(Cc2n[nH]c(=O)c3ccccc23)ccc1F)N1CCN(C(=O)C2CC2)CC1 . Its IC50 was > 5 µM

Measured IC50 of C=CCc1cccc(/C=N/NC(=O)CN2CCN(Cc3ccccc3)CC2)c1O : > 2.56 µM

---

Below is a list of entries, each paired with its recorded IC50 value.
# Tested on: RCC10RGB;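 further: growth inhibition of human RCC10RGB cells, read out by a cell viability assay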
# experiment description: cells
# Format: functional, cell-based, Homo sapiens
# test settings: Homo sapiens, RCC10RGB
# Description: SANGER: Inhibition of human RCC10RGB cell growth in a cell viability assay.

Answered cases to consult:
molecule	IC50
O=C1N=C(NCc2cccs2)S/C1=C\c1ccc2ncccc2c1	> 5 µM
CN1CCN(CCOc2cc(OC3CCOCC3)c3c(Nc4c(Cl)ccc5c4OCO5)ncnc3c2)CC1 [SARACATINIB]	> 2 µM
COc1ccc(C2=N[C@@H](c3ccc(Cl)cc3)[C@@H](c3ccc(Cl)cc3)N2C(=O)N2CCNC(=O)C2)c(OC(C)C)c1 [NUTLIN-3]	> 8 µM

Recorded result, CN(Cc1cnc2nc(N)nc(N)c2n1)c1ccc(C(=O)N[C@@H](CCC(=O)O)C(=O)O)cc1 [METHOTREXATE] , IC50: > 0.2 µM

The recorded IC50 for COC(=O)CNC(=O)C(=O)OC is 1040 µM

Record summary for COc1cc([C@@H]2c3cc4c(cc3[C@@H](O[C@@H]3O[C@@H]5CO[C@@H](C)O[C@H]5[C@H](O)[C@H]3O)[C@H]3COC(=O)[C@H]23)OCO4)cc(OC)c1O [ETOPOSIDE] : reported IC50 = > 16 µM

Lab note: measured IC50 of O=C(NOCC1CC1)c1ccc(F)c(F)c1Nc1ccc(I)cc1Cl [CI-1040] was > 10 µM

// sample CCc1nc(N)nc(N)c1-c1ccc(Cl)cc1 [PYRIMETHAMINE] , its IC50 was > 20 µM

---

# System: CP66-MEL;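 further: growth inhibition of CP66-MEL cells determined in a cell viability assay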
# experiment description: cells
# Assay type: functional, cell-based, Homo sapiens
# test settings: cp66-mel
# Description: SANGER: Inhibition of human CP66-MEL cell growth in a cell viability assay.
pIC50: −log10 of the molar value.
measured attribute: pIC50

For reference, reported pIC50 for Cc1cc([C@@H](C)Nc2ccccc2C(=O)O)c2nc(N3CCOCC3)cc(=O)n2c1 stands at < 5.29

---

# Test system: LB647-SCLC;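 further: cell growth inhibition, read out by a viability assay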
# experiment description: cells
# Assay type: functional, cell-based
# test settings: Homo sapiens
# Description: SANGER: Inhibition of human LB647-SCLC cell growth in a cell viability assay.
pIC50: −log10 of the molar value.
measured attribute: pIC50

C=CCc1cccc(/C=N/NC(=O)CN2CCN(Cc3ccccc3)CC2)c1O < 5.59
CC1=C2C[C@H]3[C@@H](CC=C4C[C@@H](O)CC[C@@]43C)[C@@H]2CC[C@]12O[C@@H]1C[C@H](C)CN[C@H]1[C@H]2C < 4.80

According to the records, this molecule Cc1cnc(-c2cnc(NCCNc3ccc(C#N)cn3)nc2-c2ccc(Cl)cc2Cl)[nH]1 displays pIC50 of < 5.59

Briefly, pIC50 measured for Cn1cncc1[C@@](N)(c1ccc(Cl)cc1)c1ccc2c(c1)c(-c1cccc(Cl)c1)cc(=O)n2C : < 4.80

---

# Test system: LOUCY
# experiment description: cells
# Type: functional, cell-based
# test settings: Homo sapiens
# Description: SANGER: Inhibition of human LOUCY cell growth in a cell viability assay.
pIC50: −log10 of the molar value.
Some compounds, each annotated with its measured pIC50.

compound	pIC50
CN(c1ncccc1CNc1nc(Nc2ccc3c(c2)CC(=O)N3)ncc1C(F)(F)F)S(C)(=O)=O	5.65

The compound identified as C[C@]1(O)C[C@@H](c2nc(-c3ccc4ccc(-c5ccccc5)nc4c3)c3c(N)nccn32)C1 registered its pIC50 at < 5.59

---

# Test system: COR-L23;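 further: cell viability assay measuring how strongly compounds suppress growth of COR-L23 cells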
# experiment description: cells
# Format: functional, cell-based, Homo sapiens
# test settings: cor-l23
# Description: SANGER: Inhibition of human COR-L23 cell growth in a cell viability assay.
measured attribute: IC50

IC50 recorded for this molecule, Cc1cc([C@@H](C)Nc2ccccc2C(=O)O)c2nc(N3CCOCC3)cc(=O)n2c1 , is > 5.12 µM

---

The reader will find reported IC50 values listed item by item below.
# Tested on: SiHa;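 further: Viability-based readout of growth inhibition in SiHa cells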
# experiment description: cells
# Type: functional, cell-based, Homo sapiens
# test settings: Homo sapiens, SiHa
# Description: SANGER: Inhibition of human SiHa cell growth in a cell viability assay.

Known IC50 results, listed for orientation:
compound	IC50
CCC1=C[C@@H]2CN(C1)Cc1c([nH]c3ccccc13)[C@@](C(=O)OC)(c1cc3c(cc1OC)N(C)[C@H]1[C@@](O)(C(=O)OC)[C@H](OC(C)=O)[C@]4(CC)C=CCN5CC[C@]31[C@@H]54)C2 [VINORELBINE]	> 64 nM
Nc1ccn([C@@H]2O[C@H](CO)[C@@H](O)[C@@H]2O)c(=O)n1 [CYTARABINE]	856 nM
Cn1cc(C2=C(c3ccc(Cl)cc3Cl)C(=O)NC2=O)c2ccccc21 [SB-216763]	> 10000 nM
C=CCc1cccc(/C=N/NC(=O)CN2CCN(Cc3ccccc3)CC2)c1O [PAC-1]	> 2560 nM
CN(c1ncccc1CNc1nc(Nc2ccc3c(c2)CC(=O)N3)ncc1C(F)(F)F)S(C)(=O)=O [PF-00562271]	> 2560 nM

The compound identified as O=C1N=C(NCc2cccs2)S/C1=C\c1ccc2ncccc2c1 registered its IC50 at > 5000 nM

Reported IC50 ( Cc1ccc(Nc2nccc(N(C)c3ccc4c(C)n(C)nc4c3)n2)cc1S(N)(=O)=O [PAZOPANIB] ) = > 8000 nM

Entry Cc1cc([C@@H](C)Nc2ccccc2C(=O)O)c2nc(N3CCOCC3)cc(=O)n2c1 [AZD-6482] — recorded IC50 = > 5120 nM
